# ASSAY SYSTEM: 5-hydroxytryptamine receptor 6 (Homo sapiens)
# TEST DETAILS: Antagonist activity at human 5HT6 receptor expressed in HEK293 cells assessed as inhibition of serotonin-induced cAMP release
# Assay type: functional, cell-based
MEASURED METRIC: pKi
Scale explanation: pKi corresponds to minus log10 of a concentration expressed in moles per litre.

Example entries and their recorded answers appear below.
[[record]]
smiles_text = "CNc1nn2cc3c(nc2c1S(=O)(=O)c1ccccc1)CCCC3"
measured_metric = "pKi"
endpoint_result = 9.27

[[record]]
smiles_text = "CNc1nn2c3c(c(C)nc2c1S(=O)(=O)c1ccccc1)CCC3"
measured_metric = "pKi"
endpoint_result = 9.38

[[record]]
smiles_text = "CNc1nn2c3c(cnc2c1S(=O)(=O)c1ccccc1)CCC3"
measured_metric = "pKi"
endpoint_result = 9.43


## Task Entry CNc1nn2c3c(cnc2c1S(=O)(=O)c1ccccc1)CCCC3 : reported pKi = ?
## Result 9.59

## Task Note, next up: Cc1nc2c(S(=O)(=O)c3ccccc3)c(N(C)C)nn2c2c1CCC2
## Result 7.59

## Task Note, next up: Cc1nc2c(S(=O)(=O)c3ccccc3)c(N3CCNCC3)nn2c2c1CCC2
## Result 6.06

## Task Note, next up: CN(C)c1nn2c3c(cnc2c1S(=O)(=O)c1ccccc1)CCC3
## Result 7.54

## Task Note, next up: Cc1nc2c(S(=O)(=O)c3ccccc3)c(N3CCNCC3)nn2c2c1CCCC2
## Result 5.75

###

# ASSAY SYSTEM: hERG (KCNH2) (Homo sapiens)
# Sequence (Q12809 whole entry): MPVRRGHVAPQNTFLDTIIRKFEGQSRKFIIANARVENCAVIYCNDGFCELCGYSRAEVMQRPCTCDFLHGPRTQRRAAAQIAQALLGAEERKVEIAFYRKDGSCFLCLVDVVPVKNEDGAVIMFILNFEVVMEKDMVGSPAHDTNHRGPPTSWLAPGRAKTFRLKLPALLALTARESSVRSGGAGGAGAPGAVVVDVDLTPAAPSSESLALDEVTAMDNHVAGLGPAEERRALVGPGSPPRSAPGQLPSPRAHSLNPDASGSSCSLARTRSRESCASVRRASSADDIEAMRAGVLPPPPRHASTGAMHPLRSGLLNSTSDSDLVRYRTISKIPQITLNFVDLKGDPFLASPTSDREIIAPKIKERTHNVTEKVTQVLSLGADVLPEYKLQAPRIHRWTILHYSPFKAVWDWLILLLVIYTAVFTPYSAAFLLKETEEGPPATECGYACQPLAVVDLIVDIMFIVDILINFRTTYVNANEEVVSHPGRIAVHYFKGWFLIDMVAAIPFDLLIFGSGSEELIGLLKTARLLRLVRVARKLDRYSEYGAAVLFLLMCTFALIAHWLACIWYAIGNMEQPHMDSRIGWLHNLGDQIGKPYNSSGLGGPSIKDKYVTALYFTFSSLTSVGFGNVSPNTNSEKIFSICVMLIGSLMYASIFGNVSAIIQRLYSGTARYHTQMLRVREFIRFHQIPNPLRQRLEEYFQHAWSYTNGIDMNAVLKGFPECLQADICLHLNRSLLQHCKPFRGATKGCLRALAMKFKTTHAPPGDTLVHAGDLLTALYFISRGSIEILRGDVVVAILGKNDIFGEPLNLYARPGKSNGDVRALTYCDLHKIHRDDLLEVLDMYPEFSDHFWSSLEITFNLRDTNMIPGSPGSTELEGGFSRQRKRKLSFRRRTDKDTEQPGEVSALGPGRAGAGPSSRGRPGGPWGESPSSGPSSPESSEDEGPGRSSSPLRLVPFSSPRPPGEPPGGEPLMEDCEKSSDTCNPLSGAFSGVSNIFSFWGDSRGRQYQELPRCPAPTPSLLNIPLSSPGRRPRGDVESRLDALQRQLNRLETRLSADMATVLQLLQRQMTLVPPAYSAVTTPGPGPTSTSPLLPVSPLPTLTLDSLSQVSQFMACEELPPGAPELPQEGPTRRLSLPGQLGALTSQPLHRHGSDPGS
# TEST DETAILS: Inhibition of human ERG expressed in […] cells at 3 uM after 3 to 8 mins by voltage clamp assay
# Assay type: cell-based
# EXPERIMENTAL CONTEXT: HEK297 cells that express human ERG
MEASURED METRIC: inhibition at 3 µM (%)
The reply should contain only the number, in %.

[[record]]
smiles_text = "CNc1nn2c3c(c(C)nc2c1S(=O)(=O)c1ccccc1)CCC3"
measured_metric = "inhibition at 3 µM"
endpoint_result = 4.3


## Task Entry CNc1nn2c(C)c3c(nc2c1S(=O)(=O)c1ccccc1)CCCC3 : reported inhibition at 3 µM = ?
## Result 12.5

###

# ASSAY SYSTEM: hERG (KCNH2) (Homo sapiens)
# TEST DETAILS: Inhibition of human ERG expressed in […] cells at 90 uM after 3 to 8 mins by voltage clamp assay
# Assay type: cell-based
# EXPERIMENTAL CONTEXT: HEK297 cells that express human ERG
MEASURED METRIC: inhibition at 90 µM (%)
The reply should contain only the number, in %.

## Task Hello, I am looking for reported inhibition at 90 µM with hERG (KCNH2) (Homo sapiens) for CNc1nn2c3c(cnc2c1S(=O)(=O)c1ccccc1)CCC3 . Could you help?
## Result 29.5

###

# ASSAY SYSTEM: 5-hydroxytryptamine receptor 6 (Homo sapiens, UniProt P50406)
# Sequence (P50406 whole entry): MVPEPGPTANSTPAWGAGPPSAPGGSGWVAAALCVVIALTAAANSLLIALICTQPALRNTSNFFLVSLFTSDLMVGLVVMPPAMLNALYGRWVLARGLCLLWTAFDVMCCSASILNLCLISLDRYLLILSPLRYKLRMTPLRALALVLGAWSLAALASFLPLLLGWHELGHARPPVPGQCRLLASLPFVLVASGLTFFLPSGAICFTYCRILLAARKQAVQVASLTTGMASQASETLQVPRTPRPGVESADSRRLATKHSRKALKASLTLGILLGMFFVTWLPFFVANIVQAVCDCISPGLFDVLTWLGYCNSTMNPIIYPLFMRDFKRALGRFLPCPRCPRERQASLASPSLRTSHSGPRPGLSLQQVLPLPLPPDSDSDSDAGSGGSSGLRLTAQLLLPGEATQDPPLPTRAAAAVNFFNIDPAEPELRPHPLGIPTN
# TEST DETAILS: Antagonist activity at 5HT6 receptor
MEASURED METRIC: pIC50
Scale explanation: pIC50 corresponds to minus log10 of a concentration expressed in moles per litre.

## Task Entry CSc1nn2c3c(c(C)nc2c1S(=O)(=O)c1ccccc1)CCCC3 : reported pIC50 = ?
## Result 8.22

###

# ASSAY SYSTEM: UniProt:P41595
# Sequence (P41595 whole entry): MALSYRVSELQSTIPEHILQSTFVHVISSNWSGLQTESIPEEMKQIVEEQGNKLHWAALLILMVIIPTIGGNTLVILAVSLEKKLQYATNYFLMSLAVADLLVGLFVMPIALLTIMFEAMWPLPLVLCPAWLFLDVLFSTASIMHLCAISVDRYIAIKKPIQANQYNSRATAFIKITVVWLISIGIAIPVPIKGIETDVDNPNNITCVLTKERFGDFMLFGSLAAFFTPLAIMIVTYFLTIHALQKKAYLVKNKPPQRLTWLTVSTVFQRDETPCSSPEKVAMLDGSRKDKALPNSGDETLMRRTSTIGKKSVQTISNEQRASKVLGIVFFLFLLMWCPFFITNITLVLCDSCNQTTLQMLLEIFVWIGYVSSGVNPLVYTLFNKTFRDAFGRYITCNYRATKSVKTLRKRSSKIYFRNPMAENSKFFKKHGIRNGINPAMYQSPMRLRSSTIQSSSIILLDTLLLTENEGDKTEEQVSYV
# TEST DETAILS: Antagonist activity at human 5HT2B receptor expressed in HEK293 cells assessed as inhibition of alpha-Me-serotonin-induced intracellular calcium mobilization by spectrophotometry
# Format: functional, cell-based
MEASURED METRIC: pKi
Scale explanation: pKi corresponds to minus log10 of a concentration expressed in moles per litre.

Example entries and their recorded answers appear below.
[[record]]
smiles_text = "CNc1nn2c3c(cnc2c1S(=O)(=O)c1ccccc1)CCC3"
endpoint_result = 6.33

[[record]]
smiles_text = "CNc1nn2c3c(cnc2c1S(=O)(=O)c1ccccc1)CCCC3"
endpoint_result = 6.82

[[record]]
smiles_text = "CNc1nn2cc3c(nc2c1S(=O)(=O)c1ccccc1)CCCC3"
endpoint_result = 6.77


Could you now look at the following compound, please?
## Task Entry CNc1nn2c3c(c(C)nc2c1S(=O)(=O)c1ccccc1)CCC3 : reported pKi = ?
## Result 6.73

###

# ASSAY SYSTEM: hERG (KCNH2) (Homo sapiens)
# TEST DETAILS: Inhibition of human ERG expressed in […] cells at 10 uM after 3 to 8 mins by voltage clamp assay
# Format: cell-based
# EXPERIMENTAL CONTEXT: HEK297 cells that express human ERG
MEASURED METRIC: inhibition at 10 µM (%)
The reply should contain only the number, in %.

## Task Entry CNc1nn2c3c(c(C)nc2c1S(=O)(=O)c1ccccc1)CCCC3 : reported inhibition at 10 µM = ?
## Result 52.4
